# Target entity: nonsulfated human cationic trypsin purified from E. coli (human)
# Measurement notes: equilibrium binding assay (free trypsin activity on a fluorogenic substrate); fixed trypsin incubated with increasing SPINK1, 0.2 ml, 0.1 M Tris-HCl (pH 8.0), 150 mM NaCl, 1 mM CaCl2, 0.05% Tween 20, 15 h; free trypsin measured with Z-Gly-Pro-Arg-AMC; apparent KD, global fit of at least three experiments
pKd: −log10 of the molar value.
Reported metric: pKd

binder="serine protease inhibitor Kazal type 1 (SPINK1), wildtype, C-terminal 10His tag (natural protein) DSLGREAKCYNELNGCTKIYDPVCGTDGNTYPNECVLCFENRKRQTSILIQKSGPC" reported_metric=pKd value=11.96
binder="SPINK1 variant N34S, C-terminal 10His tag (natural protein) DSLGREAKCYSELNGCTKIYDPVCGTDGNTYPNECVLCFENRKRQTSILIQKSGPC" reported_metric=pKd value=11.82

These data points were gathered from paper PMC7949130.
